Conditions: 313.15 K; 101.33 kPa; Liquid; Capillary tube (Ostwald / Ubbelohde) method
Please provide measured viscosity for the entries that follow.
Answers are plain numbers, in mPa·s.

test_smiles=NCCCO recorded_endpoint=viscosity result_unit=mPa·s data_value=15.31
test_smiles=CCCO recorded_endpoint=viscosity result_unit=mPa·s data_value=1.018
test_smiles=CC(C)CO recorded_endpoint=viscosity result_unit=mPa·s data_value=2.091

Now for the compound whose viscosity we want.
Entry `CC(C)O` , viscosity reported as 1.2

---

Conditions: 293.15 K; 101.33 kPa; Liquid; Vibrating tube method
Numbers after ± are expanded uncertainties.
recorded-endpoint: mass density
The number alone won't do; follow it with the unit.

test_smiles=CCCO data_value="803.57 ± 0.15 kg/m3"
test_smiles=CC(C)CO data_value="801.82 ± 0.24 kg/m3"
test_smiles=CC(C)O data_value="785.35 ± 0.17 kg/m3"

Entry `NCCCO` , mass density reported as 987.65 ± 0.23 kg/m3

---

Please provide measured viscosity for the entries that follow.
Conditions: 323.15 K; 101.33 kPa; Liquid; Capillary tube (Ostwald / Ubbelohde) method
Give bare numbers, in mPa·s.

// solved cases for viscosity follow
test_smiles=CC(C)CO result_unit=mPa·s data_value=1.576
test_smiles=NCCCO result_unit=mPa·s data_value=10.22
test_smiles=CC(C)O result_unit=mPa·s data_value=0.938

Entry `CCCO` , viscosity reported as 0.79

---

Conditions: 333.15 K; 101.33 kPa; Liquid; Vibrating tube method
Please provide measured mass density for the entries that follow.
Give bare numbers, in kg/m3.

compound="CC(C)O [propan-2-ol]" data_value=749.25
compound="CCCO [propan-1-ol]" data_value=770.38
compound="CC(C)CO [2-methyl-1-propanol]" data_value=769.46

Entry NCCCO [3-amino-1-propanol] , mass density reported as 955.38

---

Conditions: 293.15 K; 101.33 kPa; Liquid; Capillary tube (Ostwald / Ubbelohde) method
recorded-endpoint: viscosity (mPa·s)
One number for each entry, in mPa·s.

Give viscosity for all molecules that follow.
1. NCCCO [3-amino-1-propanol]
2. CC(C)CO [2-methyl-1-propanol]
3. CCCO [propan-1-ol]

Result:
[40.46, 4.087, 2.204]

Entry CC(C)O [propan-2-ol] , viscosity reported as 2.362

---

Details: 323.15 K; 101.33 kPa; Liquid; Vibrating tube method
recorded-endpoint: mass density (kg/m3)
Numbers only, in kg/m3.

// solved cases for mass density follow
compound="CC(C)CO [2-methyl-1-propanol]" data_value=777.94
compound="CCCO [propan-1-ol]" data_value=778.98
compound="NCCCO [3-amino-1-propanol]" data_value=963.52

Now for the compound whose mass density we want.
Entry CC(C)O [propan-2-ol] , mass density reported as 758.89

---

Conditions: 313.15 K; 101.33 kPa; Liquid; Vibrating tube method
recorded-endpoint: mass density (kg/m3)
Numbers only, in kg/m3.

test_smiles=NCCCO result_unit=kg/m3 data_value=971.61
test_smiles=CCCO result_unit=kg/m3 data_value=787.35
test_smiles=CC(C)O result_unit=kg/m3 data_value=768.07

Entry `CC(C)CO` , mass density reported as 786.12

---

Please provide measured mass density for the entries that follow.
Conditions: 303.15 K; 101.33 kPa; Liquid; Vibrating tube method
Give bare numbers, in kg/m3.

test_smiles=CC(C)O recorded_endpoint="mass density" result_unit=kg/m3 data_value=776.86
test_smiles=CCCO recorded_endpoint="mass density" result_unit=kg/m3 data_value=795.53
test_smiles=NCCCO recorded_endpoint="mass density" result_unit=kg/m3 data_value=979.65

Entry `CC(C)CO` , mass density reported as 794.06

---

Conditions: 303.15 K; 101.33 kPa; Liquid; Capillary tube (Ostwald / Ubbelohde) method
Please provide measured viscosity for the entries that follow.
Give bare numbers, in mPa·s.

test_smiles=NCCCO data_value=23.98
test_smiles=CC(C)CO data_value=2.877
test_smiles=CC(C)O data_value=1.762

Now for the molecule whose viscosity we want.
Entry `CCCO` , viscosity reported as 1.513
